target: UniProt:Q9UDY8; experiment: biochemical;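 note: Cell-free protease assay: enzyme preincubated with compound 30 min at room temperature, then cleavage of fluorogenic Ac-LVSR-AMC substrate (100 µM) tracked by fluorescence (ex 360/em 460 nm)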
Sequence (Q9UDY8 whole entry): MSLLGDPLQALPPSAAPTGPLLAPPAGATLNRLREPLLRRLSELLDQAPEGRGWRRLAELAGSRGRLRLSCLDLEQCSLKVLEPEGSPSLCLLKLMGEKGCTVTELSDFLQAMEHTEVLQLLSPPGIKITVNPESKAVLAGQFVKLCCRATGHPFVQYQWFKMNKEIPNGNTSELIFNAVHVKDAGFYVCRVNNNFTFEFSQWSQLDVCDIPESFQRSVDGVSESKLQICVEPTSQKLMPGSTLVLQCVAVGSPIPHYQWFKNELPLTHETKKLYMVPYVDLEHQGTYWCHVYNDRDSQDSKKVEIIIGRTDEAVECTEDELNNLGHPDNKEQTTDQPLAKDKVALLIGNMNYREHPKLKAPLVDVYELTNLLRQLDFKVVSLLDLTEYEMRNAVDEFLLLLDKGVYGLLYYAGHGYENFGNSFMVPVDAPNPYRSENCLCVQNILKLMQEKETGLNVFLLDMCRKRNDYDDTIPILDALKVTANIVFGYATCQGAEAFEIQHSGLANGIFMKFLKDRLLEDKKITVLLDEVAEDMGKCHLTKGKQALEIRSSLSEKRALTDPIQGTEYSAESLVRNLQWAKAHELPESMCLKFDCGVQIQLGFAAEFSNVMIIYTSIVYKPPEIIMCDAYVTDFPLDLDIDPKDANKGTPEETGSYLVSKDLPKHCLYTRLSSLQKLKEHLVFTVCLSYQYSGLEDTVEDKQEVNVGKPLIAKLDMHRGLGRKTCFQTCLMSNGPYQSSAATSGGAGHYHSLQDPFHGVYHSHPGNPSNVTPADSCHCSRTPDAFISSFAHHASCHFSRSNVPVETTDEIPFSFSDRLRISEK
Recorded IC50 values for a group of compounds are listed next.

compound	IC50
CC(=O)N1CC(OC(=O)N(C)[C@@H](c2ccc(NC3Cc4ccccc4C3(C)C)cc2)C(F)(F)F)C1 (single isomer, unassigned) [Example 57]	91 nM
CN(C(=O)N1CCOCC1)[C@@H](c1ccc(N[C@H]2Cc3ccccc3C2(C)C)cc1)C(F)(F)F (single isomer, unassigned)	290 nM
CN(C(=O)[C@H]1C[C@H](O)C1)[C@@H](c1ccc(NC2Cc3ccc(Cl)c(F)c3C2)cn1)C(F)(F)F (single isomer, unassigned) [Example 375]	1320 nM
CN(C(=O)c1cocn1)[C@@H](c1ccc(NC2Cc3ccccc3C2(C)C)cc1)C(F)(F)F (single isomer, unassigned) [Example 27]	180 nM
CN(C(=O)C1CNC1)C(c1ccc(NC2Cc3ccccc3C2(C)C)nc1)C(F)(F)F (single isomer, unassigned) [Example 88]	370 nM
CN(C(=O)CC#N)[C@@H](c1ccc(NC2Cc3ccc(Cl)c(Cl)c3C2)cn1)C(F)(F)F (single isomer, unassigned) [Example 349]	1040 nM
CNC(=O)[C@H]1C[C@H](C(=O)N(C)[C@@H](c2ccc(NC3Cc4ccc(Cl)c(Cl)c4C3)cn2)C(F)(F)F)C1 (some centres unmarked)	70 nM
CC(=O)N1CC(F)(C(=O)N(C)[C@@H](c2ccc(NC3Cc4ccccc4C3(C)C)cc2)C(F)(F)F)C1 (single isomer, unassigned) [Example 43]	62 nM
CC(=O)N1CC(C)(C(=O)N(C)[C@@H](c2ccc(NC3Cc4ccccc4C3(C)C)cc2)C(F)(F)F)C1 (single isomer, unassigned) [Example 42]	35 nM
CN1CCC(C(=O)N(C)[C@@H](c2ccc(N[C@H]3Cc4ccccc4C3(C)C)cn2)C(F)(F)F)CC1=O (single isomer, unassigned) [Example 250]	41 nM
CN(C(=O)C1CC2(CCC(=O)N2)C1)[C@@H](c1ccc(NC2Cc3ccc(Cl)c(Cl)c3C2)cn1)C(F)(F)F (single isomer, unassigned) [Example 342]	1320 nM
CN(C(=O)[C@H]1CCC(=O)NC1)[C@@H](c1ccc(NC2Cc3ccc(Cl)c(C4CC4)c3C2)cn1)C(F)(F)F (single isomer, unassigned) [Example 330]	16 nM
CN(C(=O)C1CCS(=O)(=O)CC1)[C@@H](c1ccc(NC2Cc3ccc(Cl)c(F)c3C2)nc1)C(F)(F)F (single isomer, unassigned) [Example 331]	400 nM
CC(=O)N1CC(C(=O)N(C)[C@@H](c2ccc(NC3Cc4ccc(Cl)c(Cl)c4C3)cn2)C(F)(F)F)C1 (single isomer, unassigned) [Example 376]	1200 nM
CN(C(=O)C1CC2(CCC(=O)N2)C1)[C@@H](c1ccc(NC2Cc3ccc(Cl)c(Cl)c3C2)cn1)C(F)(F)F (single isomer, unassigned) [Example 340]	560 nM
CN(C(=O)C1CCS(=O)(=O)C1)[C@@H](c1ccc(NC2Cc3ccc(Cl)c(Cl)c3C2)cn1)C(F)(F)F (single isomer, unassigned) [Example 358]	55 nM
CN(C(=O)C1CCS(=O)(=O)CC1)[C@@H](c1ccc(NC2Cc3ccccc3C2(C)C)nc1)C(F)(F)F (single isomer, unassigned)	39 nM
CN(C(=O)c1cnco1)[C@@H](c1ccc(NC2Cc3ccccc3C2(C)C)cc1)C(F)(F)F (single isomer, unassigned) [Example 5]	250 nM
CN(C(=O)C1CCS(=O)(=O)CC1)[C@@H](c1ccc(NC2Cc3cc(F)cc(Cl)c3C2)cn1)C(F)(F)F (single isomer, unassigned) [Example 287]	290 nM
CN(C(=O)[C@H]1CCC(=O)NC1)[C@@H](c1ccc(NC2Cc3ccc(Cl)c(Cl)c3C2)cn1)C(F)(F)F (single isomer, unassigned) [Example 320]	750 nM
CN(C(=O)C1CCCNC1)[C@@H](c1ccc(NC2Cc3ccccc3C2(C)C)cn1)C(F)(F)F (single isomer, unassigned) [Example 126]	120 nM
CN(C(=O)C1CCCNC1)[C@@H](c1ccc(NC2Cc3ccccc3C2(C)C)cn1)C(F)(F)F (single isomer, unassigned) [Example 125]	62 nM
CN(C(=O)C1CCCNC1)[C@@H](c1ccc(NC2Cc3ccccc3C2(C)C)cn1)C(F)(F)F (single isomer, unassigned) [Example 124]	190 nM

Source of measurements: patent US20260184687A1
